test: small molecules captured by biotinylated probe aFSTL3 – biochemical, small-molecule microarray, fluorescence 635/667, stem cell growth factor project, primary screen (AID 1064); conditions: higher = more signal;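 also: measures binding of the biotinylated anti-FSTL3 antibody to printed compounds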
metric: composite z-score
Response field accepts a number only; no unit should be typed.

Determine its reported composite z-score: C=CCNC(=O)[C@@H]1[C@H]2C(=O)O[C@H](c3ccccc3)[C@H](c3ccccc3)N2[C@H](c2ccc(OCCO)cc2)[C@@]12C(=O)N(C(=O)OCCOC)c1ccc(C#Cc3ccc(OC)cc3)cc12
-0.412

Fill in composite z-score for record COCCOC(=O)N1C(=O)[C@@]2(c3cc(C#CCCO)ccc31)[C@H](c1ccc(OCCO)cc1)N1[C@H](c3ccccc3)[C@H](c3ccccc3)OC(=O)[C@H]1[C@@H]2C(=O)Nc1nc2ccccc2s1
0.878

Please give measured composite z-score of the following entry: COC(=O)[C@@H]1N=C(c2ccc(OCCCO)cc2)O[C@@H]1C
0.0684

Input COc1cccc(C)c1NC(=O)O[C@H]1[C@H](OC(=O)Nc2ccccc2-c2ccccc2)[C@H](OC(=O)Nc2ccccc2-c2ccccc2)[C@@H](OC)O[C@@H]1CO , output reported composite z-score.
-0.205

Specify reported composite z-score for the compound shown: CC(C)C(CO)N1C(=O)[C@@H]2C3C(=O)OCCC/C=C\[C@H]3OC23C=CCN(Cn2nnc4ccccc42)C(=O)[C@@H]13 (stereo partly specified)
0.314

Report composite z-score, nothing else, for this compound: CCCNC(=O)[C@@]1(Sc2ccc(C)cc2)CC(=O)N(C2Cc3ccccc3C2)[C@@H]1c1ccc(CO)cc1I
0.427

====

Provide the reported composite z-score of each item.
biological target: Focal adhesion kinase 1 (Homo sapiens); experiment: PTK2 protein binding on printed compound slides – biochemical, small-molecule microarray, 635/667 nm fluorescence, BSA, DTT, primary screen (AID 1130); details: 635 nm fluorescence, higher = more signal;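 also: composite of spot emission at 667 nm and signal to noise over triplicate slides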
// no unit string in output, number only

Give me measured composite z-score, please, for this compound: CC1CC/C=C\[C@H]2OC34C=CCN(c5ccc(Cl)cc5)C(=O)[C@H]3N(C(C)CO)C(=O)[C@]4(C)C2C(=O)O1 (stereo not given in full)
-0.177

Identify the reported composite z-score for the following entry. C=CCC(OC(C)=O)[C@@H]1[C@@H](N(Cc2ccc(-c3cccc(C(F)(F)F)c3)o2)C(=O)c2ccc(-c3ccccc3)cc2)c2cc(OCCCO)ccc2N1C(=O)Cc1ccc2ccccc2c1 (stereo not given in full)
0.0827

Return value of composite z-score for input CCCC#C[Si](O[C@H](CC)c1cn([C@H](C)c2ccccc2)nn1)(C(C)C)C(C)C , no commentary.
0.986

Consider the compound C=CCNC(=O)[C@@H]1[C@H]2C(=O)O[C@H](c3ccccc3)[C@H](c3ccccc3)N2[C@H](c2ccccc2OCCO)[C@@]12C(=O)Nc1ccc(C#CCCO)cc12 and give its recorded composite z-score.
0.415

Check the records and state composite z-score for CCOC(=O)C[C@H]1[C@H](OC(=O)c2ccccc2-c2ccccc2)[C@@H](NC(=O)c2ccc3ccccc3c2)c2cc(OCCCO)ccc2N1C(=O)c1ccccc1
0.288

Provide only the value of recorded composite z-score for COC(=O)[C@@]1(Cc2ccc(F)cc2)[C@H]2c3cc(C(=O)N(C)C)n(CCc4ccc(OC)c(Br)c4)c3C[C@H]2CN1C(=O)c1ccccc1
0.178

Write down composite z-score measured for item CCOC(=O)C[C@H]1[C@H](OC(=O)c2ccc(C(=O)c3ccccc3)cc2)[C@@H](NC(=O)C2CCCCC2)c2cc(OCCCO)ccc2N1C(=O)c1ccc2ccccc2n1
0.0096

// Input: COC(=O)[C@]1(CCS(=O)(=O)c2ccccc2)N=C(c2ccc(OCCCO)cc2)O[C@@H]1c1ccccc1N=[N+]=[N-] . Output its composite z-score only.
0.263

Output measured composite z-score for this item: [N-]=[N+]=Nc1ccccc1C[C@]1(C(=O)NCCN2CCOCC2)COC(c2ccc(OCCCO)cc2)=N1
0.696

Tell us which composite z-score value is on record for COc1ccccc1CN1C(=O)c2ccccc2[C@](Cc2ccccc2I)(C(=O)O)[C@@H]1c1ccc(CO)cc1
0.758

State its composite z-score: O=C1CS(=O)(=O)C(c2cccc([N+](=O)[O-])c2)N1c1ccccc1 (stereo not given)
0.596

Entry CC(C)N1C(=O)C[C@@](C(=O)O)(c2ccc([N+](=O)[O-])cc2)[C@H]1c1ccc(CO)cc1 needs its composite z-score filled in; supply it.
-0.0404

Please report composite z-score for the following compound: COCC(=C=CC[C@H](O)c1ccccc1OCCO)C[C@H](O)c1ccccn1
-0.17

Identify measured composite z-score corresponding to CCCCCC1=C2CNC(C)(C(=O)OC)C=C2C(C)C1=O (stereo not given)
-0.108

Give the reported composite z-score for this compound. COc1ccc(C#Cc2ccc3c(c2)[C@]2(C(=O)N3)[C@H](C(=O)O)[C@H]3C(=O)O[C@H](c4ccccc4)[C@H](c4ccccc4)N3[C@@H]2c2ccc(O)cc2)cc1
0.0564

====

I'd be grateful if you could share measured z-score for these entries.
assay: resazurin metabolic signal in HepG2 cells – cell-based, resazurin fluorescence, 24 h, PK04 Diversity Set, profiling panel (AID 1172); conditions: HepG2 viability, higher = more signal; also: test concentration not given here
// keep it numeric: no unit symbol after the value

Give the reported z-score for this molecule. [N-]=[N+]=Nc1ccccc1[C@@H]1OC(c2ccc(OCCCO)cc2)=N[C@]1(Cc1ccccc1)C(=O)O
0.841

Look up z-score of CC1CC/C=C\[C@H]2OC34C=CCN(C(C)C)C(=O)[C@H]3N(CCO)C(=O)[C@@H]4C2C(=O)O1 (some centres not stated) and report it.
-0.961

Give me measured z-score, please, for this molecule: COc1ccc([Si](C)(C)[C@H]2[C@H](CC(=O)N(CCO)Cc3ccccc3)O[C@@]3(C(=O)N(C)c4c(Br)cc(C)cc43)[C@@H]2C)cc1
-1.86

Give z-score for the following molecule: COC(=O)C1(CC(C)C)C=C2C(=C(c3ccccc3)C(=O)C2C)CN1 (configuration not stated)
-1.21

Return reported z-score. Input molecule: CCCC[C@@H]1C[C@H]1[C@@H](NC(=O)c1cccs1)c1ccccc1C(F)(F)F
-0.119

Give the reported z-score for this molecule. CO[C@H]1O[C@H](CO)[C@@H](OC(=O)CCc2ccccc2)[C@@H]2OC(=O)[C@@H](Cc3ccccc3)C/C=C/C[C@H](Cc3ccccc3)C(=O)O[C@@H]12
0.195

Retrieve z-score measured for O=C1N(Cc2ccccc2)c2ccccc2C[C@]12N=C(c1ccc(OCCCO)cc1)O[C@@H]2c1ccccc1 and print it.
-0.658

Quick one: give measured z-score for CCOC(=O)[C@@H]1CCCCN1C(=O)C(=O)OC
-0.165

Name the recorded z-score of the item CC(C)C[C@@H]1NC(=O)[C@@H]2C[C@H](C(=O)NCCCCCCN)[C@H](c3cccc(OCCO)c3)N2C1=O in your answer.
-0.821

Please look at this molecule and report its z-score: COC(=O)[C@@]1(Cc2ccccc2)[C@H]2c3cc(C(=O)N(C)C)n(Cc4ccc(C)o4)c3C[C@H]2CN1C(=O)c1ccccc1
-0.98

Provide only the value of recorded z-score for C=CCN1Cc2ccccc2[C@@H]2OC(c3ccc(OCCCO)cc3)=N[C@]2(CC=C)C1=O
0.151

Return value of z-score for input COCC(=C=CC[C@H](O)c1ccccc1OCCO)C[C@H](O)c1ccccn1 , no commentary.
0.839

Supply z-score value. Item: COc1ccc([Si](C)(C)[C@@H]2[C@@H](CC(=O)N(CCO)Cc3ccccc3)O[C@]3(C(=O)N(Cc4cccc(N5CCCCC5=O)c4)c4ccccc43)[C@H]2C)cc1
-0.369

Specify z-score for CC(=O)NCCCC[C@@H]1NC(=O)[C@@H]2C[C@H](C(=O)NCCCCCN)[C@H](c3cccc(OCCO)c3)N2C1=O and stop.
0.619

Read off the recorded z-score for C=CC[C@@]1(C(=O)NCCCOC)N=C(c2ccc(OCCCO)cc2)O[C@@H]1c1ccccc1
-0.843

Query z-score for CN(C)c1ccc(C(O)C2C=CC3C(=O)NC(=O)C3N2Nc2ccccn2)cc1 (configuration not stated)
-0.8

Query z-score for O=C(NCCN1CCOCC1)[C@@H]1c2ccccc2C(=O)N(C2Cc3ccccc3C2)[C@H]1c1ccc(CO)cc1
-0.174

Return the recorded z-score value; entry: CCCC[C@@H](O)C1=C(COc2ccccc2)C[C@H]2C(=O)N(Cc3ccccc3)C(=O)[C@H]2[C@H]1CO
-0.78

Given COC(=O)C1=CC(CCCO)=CC(c2cccs2)N(C)C=C1C(=O)OC (configuration not stated) , respond with its z-score.
-0.86

Give the measured z-score for CCCCNC(=O)c1ccc(C#CC(C)(C)C)c(OC(C)=O)c1
0.111

Consider the molecule COc1cc(NN2C(C(O)c3ccc(N(C)C)cc3)C=CC3C(=O)N(c4ccccc4)C(=O)C32)cc(OC)c1OC (configuration not stated) and give its recorded z-score.
-1.16

Supply recorded z-score for CC(C)C(CO)N1C(=O)[C@@H]2C3C(=O)OCCC/C=C\[C@H]3OC23C=CCN(Cn2nnc4ccccc42)C(=O)[C@@H]13 (some centres not stated) here.
0.658

Answer with the recorded z-score of O=C1N(CCS(=O)(=O)c2ccccc2)c2ccccc2[C@H]2OC(c3ccc(OCCCO)cc3)=N[C@@]12Cc1ccccc1 only.
0.676

Using the record for CC(C)N1CC=CC23O[C@@H]4C=CCCOC(=O)C4[C@H]2C(=O)N(CCCO)[C@@H]3C1=O (some centres not stated) , state its measured z-score.
1.12

Please give the documented z-score of COc1ccccc1CN1C(=O)c2ccccc2[C@](Cc2ccccc2I)(C(=O)O)[C@@H]1c1ccc(CO)cc1
-0.569

Answer with the recorded z-score of CC(C)C(O)C1C=CC2C(=O)N(c3ccccc3)C(=O)C2N1Nc1ccccc1 (configuration not stated) only.
-0.196

# return recorded z-score for input CCOC(=O)C[C@H]1[C@H](OC(=O)c2ccc(C(=O)c3ccccc3)cc2)[C@@H](NC(=O)c2ccc(-c3ccccc3)cc2)c2cc(OCCCO)ccc2N1C(=O)Cc1ccc(OC)cc1
0.247

Determine from records and report z-score for CC(C)c1ccc(NN2C(C(O)c3ccc(C#N)cc3)C=CC3C(=O)N(c4ccccc4)C(=O)C32)cc1 (configuration not stated)
-2

Give z-score for the following molecule: CS(=O)(=O)CCOC(=O)C1=CC(c2ccc(CO)cc2)=CC(C2CC2)N(Cc2sc3ccccc3c2Cl)C=C1C(=O)OCCS(C)(=O)=O (configuration not stated)
0.315

Please report the measured z-score for C=C(COC)C(=O)CC[C@@H](OC(C)=O)c1cccc(OCCO)c1
-0.434

Retrieve z-score measured for COc1ccc([Si](C)(C)[C@H]2[C@H](CC(=O)N3CCC[C@H]3CO)O[C@@]3(C(=O)N(Cc4ccc(N5CCOC5=O)cc4)c4ccccc43)[C@@H]2C)cc1 and print it.
-0.0717

Answer with reported z-score of Cc1ccc(N2C(=O)c3ccccc3[C@@H](C(=O)NCCCN(C)C)[C@@H]2c2ccc(CO)cc2)nc1
0.258
